The reported numbers originate from patent US20120225909A1.

Readings of β1 receptor I.A. for the listed compounds
Biological target: human β1-adrenergic receptor (Homo sapiens)
Construct: expressed in transfected cells; host or cells: CHO (Chinese hamster ovary) cells, pcDNA3
Sequence (P08588 whole entry): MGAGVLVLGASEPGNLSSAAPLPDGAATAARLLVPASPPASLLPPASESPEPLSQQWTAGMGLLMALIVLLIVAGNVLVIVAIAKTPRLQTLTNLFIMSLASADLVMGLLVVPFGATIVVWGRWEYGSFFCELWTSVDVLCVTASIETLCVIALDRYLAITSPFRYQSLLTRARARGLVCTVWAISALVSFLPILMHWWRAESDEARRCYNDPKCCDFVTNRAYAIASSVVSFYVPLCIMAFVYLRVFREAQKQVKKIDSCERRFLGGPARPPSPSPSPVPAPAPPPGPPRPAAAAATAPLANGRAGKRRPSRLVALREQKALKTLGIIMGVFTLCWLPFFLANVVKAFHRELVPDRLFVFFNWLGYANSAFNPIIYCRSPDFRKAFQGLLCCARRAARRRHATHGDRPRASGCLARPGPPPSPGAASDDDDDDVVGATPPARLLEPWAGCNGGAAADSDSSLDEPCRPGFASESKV
Experiment: Test Case 2-B: human β1-adrenergic receptor agonist activity
Assay type: cell-based
Settings: Test Case 2-B; maximum response of isoproterenol = 100%
Please reply with the bare figure in % and do not write the unit itself.

A selection of reference data follows.
smiles_entry: COc1cccc(S(=O)(=O)Nc2cccc([C@@H](O)CNCCOc3ccc4c(OC)n[nH]c4c3)c2)c1
measurement_units: %
β1 receptor I.A.: −2
--
smiles_entry: COc1n[nH]c2cc(OCCNC[C@H](O)c3cccc(NS(=O)(=O)c4cccc(Cl)c4)c3)ccc12
measurement_units: %
β1 receptor I.A.: 4
--
smiles_entry: COc1n[nH]c2cc(OCCNC[C@H](O)c3cccc(NS(=O)(=O)C4CC4)c3)ccc12
measurement_units: %
β1 receptor I.A.: 3
--
smiles_entry: COc1n[nH]c2cc(OCCNC[C@H](O)c3cccc(NS(=O)(=O)c4cccnc4)c3)ccc12
measurement_units: %
β1 receptor I.A.: 9
--
smiles_entry: COc1n[nH]c2cc(OCCNC[C@H](O)c3cccc(NS(=O)(=O)c4ccsc4)c3)ccc12
measurement_units: %
β1 receptor I.A.: 5
--
smiles_entry: COc1n[nH]c2cc(OCCNC[C@H](O)c3cccc(NS(=O)(=O)c4cccs4)c3)ccc12
measurement_units: %
β1 receptor I.A.: 9

Sure, the documented β1 receptor I.A. for `COc1n[nH]c2cc(OCCNC[C@H](O)c3cccc(NS(=O)(=O)c4cccc(N)c4)c3)ccc12` is 12

* * *

Readings of number of experimental animals matching Score 0 (no piloerection) for the listed compounds
Test system: Male C57BL/6 Cr mice
Test: Test Case 10: mouse piloerection test
Type: in vivo
Settings: 10 mg/kg i.v., n=4, observation time 30 min, Score 0
Reply with just the number.

Sure, the documented number of experimental animals matching Score 0 (no piloerection) for Cc1n[nH]c2cc(OCCNC[C@H](O)c3cccc(NS(=O)(=O)C4CCC4)c3)ccc12 [ex3] is 3

Sure, the documented number of experimental animals matching Score 0 (no piloerection) for CCc1n[nH]c2cc(OCCNC[C@H](O)c3cccc(NS(=O)(=O)c4cn[nH]c4)c3)ccc12 [ex149] is 4

Sure, the documented number of experimental animals matching Score 0 (no piloerection) for O=S(=O)(Nc1cccc([C@@H](O)CNCCOc2ccc3c(C4CC4)n[nH]c3c2)c1)C1CC1 [ex212] is 4

Sure, the documented number of experimental animals matching Score 0 (no piloerection) for Cc1n[nH]c2cc(OCCNC[C@H](O)c3cccc(NS(=O)(=O)c4cc(N)ccc4F)c3)ccc12 [ex61] is 4

* * *

Test system: Male C57BL/6 Cr mice
Test: Test Case 10: mouse piloerection test
Format: in vivo
Conditions: 10 mg/kg i.v., n=4, observation time 60 min, Score 0
Readings of number of experimental animals matching Score 0 (no piloerection) for the listed compounds
Reply with just the number.

smiles_entry: O=S(=O)(Nc1cccc([C@@H](O)CNCCOc2ccc3c(OC(F)F)n[nH]c3c2)c1)c1cn[nH]c1
numeric_result: 4
--
smiles_entry: CCc1n[nH]c2cc(OCCNC[C@H](O)c3cccc(NS(=O)(=O)c4cnn(C)c4)c3)ccc12
numeric_result: 4
--
smiles_entry: CCc1n[nH]c2cc(OCCNC[C@H](O)c3cccc(NS(=O)(=O)C4CC4)c3)ccc12
numeric_result: 2
--
smiles_entry: Cc1n[nH]c2cc(OCCNC[C@H](O)c3cccc(NS(=O)(=O)c4ccccc4F)c3)ccc12
numeric_result: 4
--
smiles_entry: CCc1n[nH]c2cc(OCCNC[C@H](O)c3cccc(NS(=O)(=O)c4cn[nH]c4)c3)ccc12
numeric_result: 4
--
smiles_entry: O=S(=O)(Nc1cccc([C@@H](O)CNCCOc2ccc3c(C4CC4)n[nH]c3c2)c1)C1CC1
numeric_result: 4
--
smiles_entry: O=S(=O)(Nc1cccc([C@@H](O)CNCCOc2ccc3c(OC(F)F)n[nH]c3c2)c1)C1CC1
numeric_result: 3

// moving on: another record for number of experimental animals matching Score 0 (no piloerection)
Sure, the documented number of experimental animals matching Score 0 (no piloerection) for `Cc1n[nH]c2cc(OCCNC[C@H](O)c3cccc(NS(=O)(=O)C4CCC4)c3)ccc12` is 4

* * *

Readings of Emax for the listed compounds
Biological target: human α1A-adrenergic receptor (Homo sapiens)
Assay: Test Case 4-A: human α1A-adrenergic receptor agonist activity (HEK293, Ca flux, Fura-2)
Format: cell-based
Set-up: expressed in transfected cells; host or cells: HEK293 cells, pcDNA3.1
Conditions: HEK293; read-out: α1A receptor I.A.
Please reply with the bare figure in % and do not write the unit itself.

A selection of reference data follows.
smiles_entry: O=S(=O)(Nc1cccc([C@@H](O)CNCCOc2ccc3c(OC(F)F)n[nH]c3c2)c1)C1CC1
measurement_units: %
Emax: 0
--
smiles_entry: COc1n[nH]c2cc(OCCNC[C@H](O)c3cccc(NS(=O)(=O)c4ccsc4)c3)ccc12
measurement_units: %
Emax: 0
--
smiles_entry: Cc1n[nH]c2cc(OCCNC[C@H](O)c3cccc(NS(=O)(=O)CC(F)(F)F)c3)ccc12
measurement_units: %
Emax: 29

// moving on: another record for Emax
Sure, the documented Emax for `CCc1n[nH]c2cc(OCCNC[C@H](O)c3cccc(NS(=O)(=O)C4CC4)c3)ccc12` is 0

* * *

Biological target: UniProtKB P35348
Sequence (P35348 1-466): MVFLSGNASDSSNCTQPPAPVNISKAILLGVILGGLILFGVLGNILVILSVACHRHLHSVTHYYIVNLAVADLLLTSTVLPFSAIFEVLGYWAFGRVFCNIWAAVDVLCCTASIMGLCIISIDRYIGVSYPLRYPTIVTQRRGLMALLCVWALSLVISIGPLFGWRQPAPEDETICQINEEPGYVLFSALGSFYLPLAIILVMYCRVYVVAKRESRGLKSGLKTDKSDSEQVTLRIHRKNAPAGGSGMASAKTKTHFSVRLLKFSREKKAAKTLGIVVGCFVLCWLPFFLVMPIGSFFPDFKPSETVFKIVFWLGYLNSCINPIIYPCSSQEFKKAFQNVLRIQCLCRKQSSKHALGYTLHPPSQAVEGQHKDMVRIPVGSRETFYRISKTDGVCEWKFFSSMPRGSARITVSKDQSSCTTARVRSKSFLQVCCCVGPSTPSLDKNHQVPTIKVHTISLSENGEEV
Test: Test Case 4-A: human α1A-adrenergic receptor agonist activity (HEK293, Ca flux, Fura-2)
Assay type: cell-based
Set-up: expressed in transfected cells; host or cells: HEK293 cells, pcDNA3.1
Details: HEK293; read-out: α1A receptor I.A.
parameter_measured: Emax (%)
Please reply with the bare figure in % and do not write the unit itself.

Observed Emax, UniProtKB P35348, `O=S(=O)(Nc1cccc([C@@H](O)CNCCOc2ccc3c(C(F)(F)F)n[nH]c3c2)c1)C1CCC1` : 54

* * *

Tested on: Male C57BL/6 Cr mice
Test: Test Case 10: mouse piloerection test
Format: in vivo
Conditions: 10 mg/kg i.v., n=4, observation time 60 min, Score 0
Readings of number of experimental animals matching Score 0 (no piloerection) for the listed molecules

A selection of reference data follows.
smiles_entry: COc1n[nH]c2cc(OCCNC[C@H](O)c3cccc(NS(=O)(=O)c4ccccc4F)c3)ccc12
result: 2
//
smiles_entry: Cc1n[nH]c2cc(OCCNC[C@H](O)c3cccc(NS(=O)(=O)c4cc(N)ccc4F)c3)ccc12
result: 4
//
smiles_entry: COc1n[nH]c2cc(OCCNC[C@H](O)c3cccc(NS(=O)(=O)c4cc(N)ccc4F)c3)ccc12
result: 4

// moving on: another record for number of experimental animals matching Score 0 (no piloerection)
Observed number of experimental animals matching Score 0 (no piloerection), Male C57BL/6 Cr mice, `Cc1n[nH]c2cc(OCCNC[C@H](O)c3cccc(NS(=O)(=O)c4cnn(C)c4)c3)ccc12` : 4

* * *

Readings of number of experimental animals matching Score 0 (no piloerection) for the listed molecules
Tested on: Male C57BL/6 Cr mice
Test: Test Case 10: mouse piloerection test
Type: in vivo
Settings: 10 mg/kg i.v., n=4, observation time 15 min, Score 0
Reply with just the number.

A selection of reference data follows.
smiles_entry: Cc1n[nH]c2cc(OCCNC[C@H](O)c3cccc(NS(=O)(=O)C4CCC4)c3)ccc12
assayed_target: Male C57BL/6 Cr mice
numeric_result: 3
--
smiles_entry: O=S(=O)(Nc1cccc([C@@H](O)CNCCOc2ccc3c(OC(F)F)n[nH]c3c2)c1)c1cn[nH]c1
assayed_target: Male C57BL/6 Cr mice
numeric_result: 4
--
smiles_entry: CCc1n[nH]c2cc(OCCNC[C@H](O)c3cccc(NS(=O)(=O)c4cnn(C)c4)c3)ccc12
assayed_target: Male C57BL/6 Cr mice
numeric_result: 4

Sure, the documented number of experimental animals matching Score 0 (no piloerection) for `O=S(=O)(Nc1cccc([C@@H](O)CNCCOc2ccc3c(OC(F)F)n[nH]c3c2)c1)C1CC1` is 4

Sure, the documented number of experimental animals matching Score 0 (no piloerection) for `COc1n[nH]c2cc(OCCNC[C@H](O)c3cccc(NS(=O)(=O)c4cc(N)ccc4F)c3)ccc12` is 4

Sure, the documented number of experimental animals matching Score 0 (no piloerection) for `Cc1n[nH]c2cc(OCCNC[C@H](O)c3cccc(NS(=O)(=O)c4ccccc4F)c3)ccc12` is 4

Sure, the documented number of experimental animals matching Score 0 (no piloerection) for `COc1n[nH]c2cc(OCCNC[C@H](O)c3cccc(NS(=O)(=O)c4ccccc4F)c3)ccc12` is 2

Sure, the documented number of experimental animals matching Score 0 (no piloerection) for `O=S(=O)(Nc1cccc([C@@H](O)CNCCOc2ccc3c(C4CC4)n[nH]c3c2)c1)C1CC1` is 4
